The reported numbers originate from paper PMC6222787.

Tested on: LPS-induced NO production in N9 microglial cells
Assay: LPS-induced NO production (Griess assay)
Format: cell-based, mouse
Conditions: Mus musculus, N9, 24 h, 50 μM compound, LPS 100 ng/mL, 24 h; mean ± S.E.M.; read-out: % Inhibition of NO Production
recorded metric: inhibition at 50 µM

| compound | result |
| --- | --- |
| C[C@@H]1O[C@@H](O[C@H]2[C@H](OC(=O)[C@]34CCC(C)(C)C[C@H]3C3=CC[C@@H]5[C@@]6(C)C[C@H](O)[C@H](O[C@@H]7O[C@H](CO)[C@@H](O)[C@H](O)[C@H]7O)C(CO)(CO)[C@@H]6CC[C@@]5(C)[C@]3(C)C[C@H]4O)OC[C@H](O)[C@@H]2O)[C@H](O)[C@H](O)[C@H]1O[C@@H]1OC[C@@H](O)[C@H](O[C@@H]2OC[C@](O)(CO)[C@H]2O)[C@H]1O | 86.5% |
| COc1ccc(C(=O)c2ccc(O)cc2)c(OC2OC(CO)C(O)C(O)C2O)c1O (stereo not shown) [Compound 2, Zimoside A] | 32.8% |
| Nc1ncnc2c1ncn2[C@@H]1O[C@H](CO)[C@@H](O)[C@H]1O | 35.1% |
| C[C@@H]1O[C@@H](O[C@H]2[C@H](OC(=O)[C@]34CCC(C)(C)C[C@H]3C3=CC[C@@H]5[C@@]6(C)C[C@H](O)[C@H](O[C@@H]7O[C@H](CO)[C@@H](O)[C@H](O[C@@H]8O[C@H](CO)[C@@H](O)[C@H](O)[C@H]8O)[C@H]7O)[C@@](C)(CO)[C@@H]6CC[C@@]5(C)[C@]3(C)C[C@H]4O)OC[C@H](O)[C@@H]2O)[C@H](O)[C@H](O)[C@H]1O[C@@H]1OC[C@@H](O)[C@H](O[C@@H]2OC[C@](O)(CO)[C@H]2O)[C@H]1O [Compound 17, Polygalacin D2] | 17.7% |
| COc1cc(O)c(C(=O)c2ccc(O)cc2)c(O)c1 [Compound 1, 2,6,4′-trihydroxy-4-methoxybenzophenone] | 41.7% |
| C[C@@H]1O[C@@H](O[C@H]2[C@H](OC(=O)[C@]34CCC(C)(C)C[C@H]3C3=CC[C@@H]5[C@@]6(C)C[C@H](O)[C@H](O[C@@H]7O[C@H](CO)[C@@H](O)[C@H](O[C@@H]8O[C@H](CO)[C@@H](O)[C@H](O)[C@H]8O)[C@H]7O)C(CO)(CO)[C@@H]6CC[C@@]5(C)[C@]3(C)C[C@H]4O)OC[C@H](O)[C@@H]2O)[C@H](O)[C@H](O)[C@H]1O[C@@H]1OC[C@@H](O)[C@H](O[C@@H]2OC[C@](O)(CO)[C@H]2O)[C@H]1O [Compound 16, Platycodin D2] | 21.7% |
| O=c1cc(-c2ccc(O)cc2)oc2cc(O)c([C@@H]3O[C@H](CO)[C@@H](O)[C@H](O)[C@H]3O)c(O)c12 | 29.8% |
